Test: Urinary excretion study in rats after oral NS, SF or CNS (LC–MS/MS)
Assay type: in vivo
Details: rat urine, oral CNS 110 mg/kg, 8 h
parameter-measured: Accumulative excretion percentage (%)
Give bare numbers, in %.

Documented Accumulative excretion percentage of CC(C)=CCC[C@](C)(O[C@@H]1O[C@H](CO)[C@@H](O)[C@H](O)[C@H]1O)[C@H]1CC[C@]2(C)[C@@H]1[C@H](O)C[C@@H]1[C@@]3(C)CC[C@H](O)C(C)(C)[C@@H]3[C@@H](O[C@@H]3O[C@H](CO)[C@@H](O)[C@H](O)[C@H]3O)C[C@]12C [ginsenoside Rg1] : 0.155

###

Test: Fecal excretion study in rats after oral NS, SF or CNS (LC–MS/MS)
Type: in vivo
Conditions: male, Sprague Dawley; rat feces, oral CNS 110 mg/kg, 8 h
Protocol: The animal room was set at constant temperature of 20 ± 2 °C with humidity of 50 ± 20% and 12/12 h light/dark cycle. Eighteen male rats were fasted for 12 h before starting the experiment. […] The urine volume was recorded and the dry feces were measured for each collection period. […] The accumulative excretion percentage was calculated for each analyte as follows. […]
parameter-measured: concentration at 8 h (ng/mL)
Give bare numbers, in ng/mL.

Examples with their reported concentration at 8 h follow.
compound	result-value
CC(C)=CCC[C@](C)(O[C@@H]1O[C@H](CO)[C@@H](O)[C@H](O)[C@H]1O)[C@H]1CC[C@]2(C)[C@@H]1[C@H](O)C[C@@H]1[C@@]3(C)CC[C@H](O[C@@H]4O[C@H](CO)[C@@H](O)[C@H](O)[C@H]4O[C@@H]4O[C@H](CO)[C@@H](O)[C@H](O)[C@H]4O)C(C)(C)[C@@H]3CC[C@]12C [ginsenoside Rd]	274
CC(C)=CCC[C@](C)(O[C@@H]1O[C@H](CO)[C@@H](O)[C@H](O)[C@H]1O)[C@H]1CC[C@]2(C)[C@@H]1[C@H](O)C[C@@H]1[C@@]3(C)CC[C@H](O)C(C)(C)[C@@H]3[C@@H](O[C@@H]3O[C@H](CO)[C@@H](O)[C@H](O)[C@H]3O)C[C@]12C [ginsenoside Rg1]	1710

// next entry
The recorded concentration at 8 h for CC(C)=CCC[C@](C)(O[C@@H]1O[C@H](CO[C@@H]2O[C@H](CO)[C@@H](O)[C@H](O)[C@H]2O)[C@@H](O)[C@H](O)[C@H]1O)[C@H]1CC[C@]2(C)[C@@H]1[C@H](O)C[C@@H]1[C@@]3(C)CC[C@H](O[C@@H]4O[C@H](CO)[C@@H](O)[C@H](O)[C@H]4O[C@@H]4O[C@H](CO)[C@@H](O)[C@H](O)[C@H]4O)C(C)(C)[C@@H]3CC[C@]12C [ginsenoside Rb1] is 1080

###

Assay: Fecal excretion study in rats after oral NS, SF or CNS (LC–MS/MS)
Format: in vivo
Details: rat feces, oral CNS 110 mg/kg, 12 h
Procedure: The animal room was set at constant temperature of 20 ± 2 °C with humidity of 50 ± 20% and 12/12 h light/dark cycle. Eighteen male rats were fasted for 12 h before starting the experiment. […] The urine volume was recorded and the dry feces were measured for each collection period. […] The accumulative excretion percentage was calculated for each analyte as follows. […]
parameter-measured: Excretion amount (µg)
Numbers only, in µg.

Reported Excretion amount ( CC(C)=CCC[C@](C)(O[C@@H]1O[C@H](CO[C@@H]2O[C@H](CO)[C@@H](O)[C@H](O)[C@H]2O)[C@@H](O)[C@H](O)[C@H]1O)[C@H]1CC[C@]2(C)[C@@H]1[C@H](O)C[C@@H]1[C@@]3(C)CC[C@H](O[C@@H]4O[C@H](CO)[C@@H](O)[C@H](O)[C@H]4O[C@@H]4O[C@H](CO)[C@@H](O)[C@H](O)[C@H]4O)C(C)(C)[C@@H]3CC[C@]12C [ginsenoside Rb1] ) = 13.492
